Hey, just so you know, these numbers are from ChEMBL document CHEMBL4765392.

experiment: Cytotoxicity against human A549 cells assessed as reduction in cell viability by Celltiter-Glo assay; format: cell-based

COMPOUND: Cc1cc(F)ccc1Cc1c(C)c2ccc(OCC(O)CN3CCC(C(N)=O)CC3)cc2oc1=O (stereo not given)
UNIT INFO: µM
READING QUALIFIER: >
CC50: 100
--
COMPOUND: Cc1c(Cc2ccc(-c3ccc(C#N)c(F)c3)cc2)c(=O)oc2cc(OCC(O)CN3CCC(C(N)=O)CC3)ccc12 (stereo not given)
UNIT INFO: µM
READING QUALIFIER: =
CC50: 29.1
--
COMPOUND: Cc1noc(C)c1-c1ccc(Cc2c(C)c3ccc(OCC(O)CN4CCC(C(N)=O)CC4)cc3oc2=O)cc1 (stereo not given)
UNIT INFO: µM
READING QUALIFIER: =
CC50: 36.9
--
COMPOUND: Cc1c(Cc2ccc(-c3ccc(C(F)(F)F)cc3)cc2)c(=O)oc2cc(OCC(O)CN3CCC(C(N)=O)CC3)ccc12 (stereo not given)
UNIT INFO: µM
READING QUALIFIER: >
CC50: 100
--
COMPOUND: Cc1c(Cc2ccccc2)c(=O)oc2cc(OCC(O)CNc3cc([N+](=O)[O-])ccc3O)ccc12 (stereo not given)
UNIT INFO: µM
READING QUALIFIER: >
CC50: 100
--
COMPOUND: Cc1c(Cc2ccccc2)c(=O)oc2cc(OCC(O)CNc3ccccc3)ccc12 (stereo not given)
UNIT INFO: µM
READING QUALIFIER: >
CC50: 100
--
COMPOUND: Cc1c(Cc2ccccc2)c(=O)oc2cc(OCC(O)CNCCCO)ccc12 (stereo not given)
UNIT INFO: µM
READING QUALIFIER: =
CC50: 53.4
--
COMPOUND: COc1ccccc1-c1ccc(Cc2c(C)c3ccc(OCC(O)CN4CCC(C(N)=O)CC4)cc3oc2=O)cc1 (stereo not given)
UNIT INFO: µM
READING QUALIFIER: =
CC50: 91.6
--
COMPOUND: NC(=O)C1CCN(CC(O)COc2ccc3c(C4CC4)cc(=O)oc3c2)CC1 (stereo not given)
UNIT INFO: µM
READING QUALIFIER: >
CC50: 100
--
COMPOUND: Cc1c(Cc2ccccc2)c(=O)oc2cc(OCCCNc3nccs3)ccc12
UNIT INFO: µM
READING QUALIFIER: =
CC50: 50.1
--
COMPOUND: Cc1c(Cc2ccccc2)c(=O)oc2cc(OCC(O)CNCCc3ccncc3)ccc12 (stereo not given)
UNIT INFO: µM
READING QUALIFIER: >
CC50: 100
--
COMPOUND: NC(=O)C1CCN(CC(O)COc2ccc3c(-c4ccccc4)c(Cc4ccccc4)c(=O)oc3c2)CC1 (stereo not given)
UNIT INFO: µM
READING QUALIFIER: =
CC50: 25.2
--
COMPOUND: Cc1c(Cc2ccccc2)c(=O)oc2cc(OCC(O)CNc3nc4ccccc4[nH]3)ccc12 (stereo not given)
UNIT INFO: µM
READING QUALIFIER: >
CC50: 100
--
COMPOUND: NC(=O)C1CCN(CC(O)COc2ccc3c(C4CC4)c(Cc4ccccc4)c(=O)oc3c2)CC1 (stereo not given)
UNIT INFO: µM
READING QUALIFIER: >
CC50: 100
--
COMPOUND: Cc1c(Cc2ccccc2)c(=O)oc2cc(OCC(O)CNCc3cccs3)ccc12 (stereo not given)
UNIT INFO: µM
READING QUALIFIER: =
CC50: 87.3
--
COMPOUND: Cc1c(Cc2ccc(C(F)(F)F)cc2)c(=O)oc2cc(OCC(O)CN3CCC(C(N)=O)CC3)ccc12 (stereo not given)
UNIT INFO: µM
READING QUALIFIER: =
CC50: 89.3
--
COMPOUND: Cc1c(Cc2ccccc2)c(=O)oc2cc(OCC(O)CNc3ccc(Br)cc3)ccc12 (stereo not given)
UNIT INFO: µM
READING QUALIFIER: >
CC50: 100
--
COMPOUND: Cc1c(Cc2ccc(C(C)(C)C)cc2)c(=O)oc2cc(OCC(O)CN3CCC(C(N)=O)CC3)ccc12 (stereo not given)
UNIT INFO: µM
READING QUALIFIER: =
CC50: 14.7
--
COMPOUND: Cc1c(Cc2ccc(OC(F)(F)F)cc2)c(=O)oc2cc(OC[C@H](O)CN3CCC(C(N)=O)CC3)ccc12
UNIT INFO: µM
READING QUALIFIER: =
CC50: 52
--
COMPOUND: Cc1c(Cc2ccc(OC(F)(F)F)cc2)c(=O)oc2cc(OCC(O)CN3CCC(C(N)=O)CC3)ccc12 (stereo not given)
UNIT INFO: µM
READING QUALIFIER: =
CC50: 68.2

====

Catalogue of selectivity ratio readings, one per entry.
test system: envelope glycoprotein of Zaire Ebolavirus; assay: Selectivity index, ratio of CC50 for human A549 cells to IC50 for inhibition of envelope glycoprotein in HIV pseudotyped Zaire Ebolavirus infected in human A549 cells assessed as reduction in virus entry; type: toxicity, cell-based; details: read-out: Ratio CC50/IC50
RESULT TYPE: selectivity ratio

COMPOUND: Cc1c(Cc2ccc(Br)cc2)c(=O)oc2cc(OCC(O)CN3CCC(C(N)=O)CC3)ccc12 (centres undefined)
TEST TARGET: envelope glycoprotein of Zaire Ebolavirus
READING QUALIFIER: >
MEASUREMENT: 111
--
COMPOUND: Cc1c(Cc2ccccc2)c(=O)oc2cc(OCC(O)CNCc3ccccc3)ccc12 (centres undefined)
TEST TARGET: envelope glycoprotein of Zaire Ebolavirus
READING QUALIFIER: >
MEASUREMENT: 75
--
COMPOUND: Cc1c(Cc2ccccc2)c(=O)oc2cc(OCC(O)CNCC3CC3)ccc12 (centres undefined)
TEST TARGET: envelope glycoprotein of Zaire Ebolavirus
READING QUALIFIER: >
MEASUREMENT: 33.3
--
COMPOUND: Cc1c(Cc2ccccc2)c(=O)oc2cc(OCC(O)CNCCc3ccccn3)ccc12 (centres undefined)
TEST TARGET: envelope glycoprotein of Zaire Ebolavirus
READING QUALIFIER: =
MEASUREMENT: 15.6
--
COMPOUND: Cc1c(Cc2ccc(C(C)(C)C)cc2)c(=O)oc2cc(OCC(O)CN3CCC(C(N)=O)CC3)ccc12 (centres undefined)
TEST TARGET: envelope glycoprotein of Zaire Ebolavirus
READING QUALIFIER: =
MEASUREMENT: 1.3
--
COMPOUND: Cc1c(Cc2ccc(Cl)cc2)c(=O)oc2cc(OCC(O)CN3CCC(C(N)=O)CC3)ccc12 (centres undefined)
TEST TARGET: envelope glycoprotein of Zaire Ebolavirus
READING QUALIFIER: =
MEASUREMENT: 16.3
--
COMPOUND: Cc1c(Cc2ccc(-c3ccccc3C#N)cc2)c(=O)oc2cc(OCC(O)CN3CCC(C(N)=O)CC3)ccc12 (centres undefined)
TEST TARGET: envelope glycoprotein of Zaire Ebolavirus
READING QUALIFIER: =
MEASUREMENT: 17.5
--
COMPOUND: COC(=O)c1ccc(Cc2c(C)c3ccc(OCC(O)CN4CCC(C(N)=O)CC4)cc3oc2=O)cc1 (centres undefined)
TEST TARGET: envelope glycoprotein of Zaire Ebolavirus
READING QUALIFIER: >
MEASUREMENT: 13.3
--
COMPOUND: Cc1c(Cc2ccccc2)c(=O)oc2cc(OCC(O)CNCCc3ccncc3)ccc12 (centres undefined)
TEST TARGET: envelope glycoprotein of Zaire Ebolavirus
READING QUALIFIER: >
MEASUREMENT: 111
--
COMPOUND: Cc1c(Cc2ccc(OC(F)(F)F)cc2)c(=O)oc2cc(OCC(O)CNc3nccs3)ccc12 (centres undefined)
TEST TARGET: envelope glycoprotein of Zaire Ebolavirus
READING QUALIFIER: =
MEASUREMENT: 66
--
COMPOUND: C#CCNCC(O)COc1ccc2c(C)c(Cc3ccccc3)c(=O)oc2c1 (centres undefined)
TEST TARGET: envelope glycoprotein of Zaire Ebolavirus
READING QUALIFIER: =
MEASUREMENT: 16.1
--
COMPOUND: Cc1c(Cc2ccc(F)cc2Cl)c(=O)oc2cc(OCC(O)CN3CCC(C(N)=O)CC3)ccc12 (centres undefined)
TEST TARGET: envelope glycoprotein of Zaire Ebolavirus
READING QUALIFIER: =
MEASUREMENT: 29
--
COMPOUND: Cc1c(Cc2ccc(F)cc2)c(=O)oc2cc(OCC(O)CN3CCC(C(N)=O)CC3)ccc12 (centres undefined)
TEST TARGET: envelope glycoprotein of Zaire Ebolavirus
READING QUALIFIER: =
MEASUREMENT: 78.8
--
COMPOUND: Cc1c(Cc2ccc(F)cc2F)c(=O)oc2cc(OCC(O)CN3CCC(C(N)=O)CC3)ccc12 (centres undefined)
TEST TARGET: envelope glycoprotein of Zaire Ebolavirus
READING QUALIFIER: >
MEASUREMENT: 81.1
--
COMPOUND: Cc1c(Cc2ccc(OC(F)(F)F)cc2)c(=O)oc2cc(OC[C@@H](O)CN3CCC(C(N)=O)CC3)ccc12
TEST TARGET: envelope glycoprotein of Zaire Ebolavirus
READING QUALIFIER: =
MEASUREMENT: 92.6
--
COMPOUND: NC(=O)C1CCN(CC(O)COc2ccc3c(C4CC4)c(Cc4ccccc4)c(=O)oc3c2)CC1 (centres undefined)
TEST TARGET: envelope glycoprotein of Zaire Ebolavirus
READING QUALIFIER: >
MEASUREMENT: 10.6
--
COMPOUND: Cc1c(Cc2cccc3ccccc23)c(=O)oc2cc(OCC(O)CN3CCC(C(N)=O)CC3)ccc12 (centres undefined)
TEST TARGET: envelope glycoprotein of Zaire Ebolavirus
READING QUALIFIER: =
MEASUREMENT: 28.5
--
COMPOUND: Cc1c(Cc2ccc(-c3ccccc3)cc2)c(=O)oc2cc(OCC(O)CN3CCC(C(N)=O)CC3)ccc12 (centres undefined)
TEST TARGET: envelope glycoprotein of Zaire Ebolavirus
READING QUALIFIER: >
MEASUREMENT: 143
--
COMPOUND: COc1ccc(Cc2c(C)c3ccc(OCC(O)CN4CCC(C(N)=O)CC4)cc3oc2=O)c(Br)c1 (centres undefined)
TEST TARGET: envelope glycoprotein of Zaire Ebolavirus
READING QUALIFIER: =
MEASUREMENT: 18
